- TGT: T1, human insulin receptor (HIR) (human, UniProt P06213 28-1382, limits assumed)
- T1 construct: Detergent-solubilised receptor; The natural receptor is an alpha2-beta2 heterotetramer cleaved from one precursor
- ASSAY PROCEDURE: 125I-insulin displacement, solubilised HIR
Non-standard residues stand in square brackets, D forms with d. No end group written: not given here. Hyp = O=C(O)[C@@H]1C[C@@H](O)CN1
QUANTITY: pKd
Answer as the number alone; pKd is minus log10 of concentration in mol/L.

-- ask Please supply the value of reported pKd for the item EWRD[Hyp]FYDWFDE[dI][Hyp][dE] (printed: EWRD-Hyp-FYDWFDEi-Hyp-e) [S322]
-- reply 6.14

-- ask Please supply the value of reported pKd for the item FHENFYDWFVRQVSK (also called D117/H2C) [S158]
-- reply 6.09

-- ask Please supply the value of reported pKd for the item S352 (N-terminal Lig′ coupled to linker 21, dimer, N-N) peptide 1: XGGGFHENFYDWFVRQVSKK peptide 2: XGGGFHENFYDWFVRQVSKK
-- reply 6.18
